Measured t50 of individual entries
# System Name: human GzmB (hGzmB) (Homo sapiens)
# Construct: For active GzmB vs pro-GzmB, p < 0.0001
# Sequence (P10144 21-247): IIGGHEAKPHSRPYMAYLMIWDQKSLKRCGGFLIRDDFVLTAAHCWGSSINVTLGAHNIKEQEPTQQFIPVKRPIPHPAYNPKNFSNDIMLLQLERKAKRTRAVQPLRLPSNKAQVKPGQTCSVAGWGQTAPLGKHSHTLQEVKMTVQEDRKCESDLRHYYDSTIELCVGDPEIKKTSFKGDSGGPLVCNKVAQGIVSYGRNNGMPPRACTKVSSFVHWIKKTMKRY
# Measurement Protocol: Fluorescence assay with recombinant hGzmB (fluorogenic response, time course)
# Type: biochemical
# Run Conditions: probe 25 μM, hGzmB 20 nM; Data 2
Where no end group is shown, it is not given here.
Just so you know, I need the unit written after the number.

IEPDSL [H3, FRET hexapeptide IEPDSL] = 18 min
IEPDAL [H5, FRET hexapeptide IEPDAL with BODIPY-FL fluorophore at the N-terminal end and Dabcyl quencher] = 7 min
IEPDSG [H2, FRET hexapeptide IEPDSG] = 15 min

The reported value for IEPDAG [H1, FRET hexapeptide IEPDAG] in terms of t50 is 38 min

The reported value for IEPDWL [H4, FRET hexapeptide IEPDWL] in terms of t50 is 55 min
